Molecular target: hMeprin β (Homo sapiens)
Sequence (Q16820 62-701): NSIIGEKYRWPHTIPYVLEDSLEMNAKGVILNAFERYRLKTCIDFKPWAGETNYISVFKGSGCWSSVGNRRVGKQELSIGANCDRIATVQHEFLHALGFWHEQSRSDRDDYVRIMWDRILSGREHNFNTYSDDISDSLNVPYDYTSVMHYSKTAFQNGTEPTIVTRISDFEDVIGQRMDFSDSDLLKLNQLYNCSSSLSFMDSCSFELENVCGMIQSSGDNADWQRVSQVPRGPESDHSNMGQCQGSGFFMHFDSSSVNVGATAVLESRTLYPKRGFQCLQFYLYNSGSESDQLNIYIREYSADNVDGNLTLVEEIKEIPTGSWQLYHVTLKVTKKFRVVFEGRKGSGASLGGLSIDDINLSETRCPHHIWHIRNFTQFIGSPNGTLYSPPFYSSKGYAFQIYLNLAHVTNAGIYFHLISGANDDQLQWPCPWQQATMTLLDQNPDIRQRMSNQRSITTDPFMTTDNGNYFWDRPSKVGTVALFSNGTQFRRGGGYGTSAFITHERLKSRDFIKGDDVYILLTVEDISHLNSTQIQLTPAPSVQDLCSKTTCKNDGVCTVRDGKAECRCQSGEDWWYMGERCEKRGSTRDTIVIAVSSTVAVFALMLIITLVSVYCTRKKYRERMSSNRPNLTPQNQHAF
Assay: Enzymatic assay, quenched peptide substrate cleavage, method A
Format: biochemical
Settings: geometric mean (geometric SD factor in parentheses), read-out: Meprin beta IC50
Protocol: The determination of enzymatic activity was based on the cleavage of internally quenched peptide substrates. A typical assay of 250 μl total volume measured in black 96 well plates consisted of 100 μl buffer, 50 μl enzyme at a final concentration of 5e-8 M to 2e-10 M, 50 μl substrate (0.15 to 80 μM, in buffer, 0.5% DMSO) and 50 μl inhibitor solution (in buffer, 1% DMSO). […] Based on method B Ki^(app) values were determined using Morrison's equation. […]
# log10 of IC50 values compiled below
Kindly note that the scale is log10 and the underlying IC50 is in µM.

Guide cases for log10 of IC50, answers given:
{"test-smiles": "O=C(Cc1c(-c2ccccc2)ncn1-c1ccccc1)NO", "recorded-metric": "log10 of IC50", "number": -0.31}
{"test-smiles": "O=C(Cc1c(-c2ccccc2)[nH]c2ccccc12)NO", "recorded-metric": "log10 of IC50", "number": 0.08}
{"test-smiles": "O=C(Cn1c(-c2ccccc2)nc2cccnc21)NO", "recorded-metric": "log10 of IC50", "number": 0.66}

[ask] Can you look up the measured log10 of IC50 of O=C(Cn1nc(-c2ccccc2)cc1-c1ccccc1)NO for me?
[reply] 1.02

[ask] Request the reported log10 of IC50 associated with O=C(Cn1c(-c2ccccc2)cc2ccccc21)NO
[reply] 0.06
